Collected pIC50 values appear next to each entry.
# measurement_target: UniProt P35869
# test_protocol: In vitro assay 2: agonism in human cell line (transactivation assay, U87 cells, DRE firefly luciferase reporter)
# Format: cell-based
# Set-up: host or cells: U87 glioblastoma cells, stably transfected with DRE firefly luciferase and renilla reporter constructs
# recorded_conditions: no kynurenic acid, 20 hours, read-out: Assay 2: AHR-luc Hum Agonism IC50
pIC50: −log10 of the molar value.

These recorded examples may help you get a feel for the data.
>  <compound>
C[C@@H](CO)NC(=O)c1cc(-c2ccc(N(C)C)cc2)nn(-c2cnn(C)c2)c1=O

>  <measurement_target>
UniProt P35869

>  <result>
< 4.70

$$$$
>  <compound>
Cn1cc(-n2nc(-c3ccc(C(F)F)cc3)cc(C(=O)N[C@@H]3COC[C@@H]3O)c2=O)cn1 (relative stereo) [Example 60]

>  <measurement_target>
UniProt P35869

>  <result>
< 4.70

$$$$

Given `O=C(N[C@H]1CCC[C@H]1O)c1cc(-c2ccc(C(F)(F)F)nc2)nn(-c2cncc(F)c2)c1=O` , state its recorded pIC50.
< 4.70

###

# measurement_target: AHR (Homo sapiens)
# Sequence (P35869 11-848): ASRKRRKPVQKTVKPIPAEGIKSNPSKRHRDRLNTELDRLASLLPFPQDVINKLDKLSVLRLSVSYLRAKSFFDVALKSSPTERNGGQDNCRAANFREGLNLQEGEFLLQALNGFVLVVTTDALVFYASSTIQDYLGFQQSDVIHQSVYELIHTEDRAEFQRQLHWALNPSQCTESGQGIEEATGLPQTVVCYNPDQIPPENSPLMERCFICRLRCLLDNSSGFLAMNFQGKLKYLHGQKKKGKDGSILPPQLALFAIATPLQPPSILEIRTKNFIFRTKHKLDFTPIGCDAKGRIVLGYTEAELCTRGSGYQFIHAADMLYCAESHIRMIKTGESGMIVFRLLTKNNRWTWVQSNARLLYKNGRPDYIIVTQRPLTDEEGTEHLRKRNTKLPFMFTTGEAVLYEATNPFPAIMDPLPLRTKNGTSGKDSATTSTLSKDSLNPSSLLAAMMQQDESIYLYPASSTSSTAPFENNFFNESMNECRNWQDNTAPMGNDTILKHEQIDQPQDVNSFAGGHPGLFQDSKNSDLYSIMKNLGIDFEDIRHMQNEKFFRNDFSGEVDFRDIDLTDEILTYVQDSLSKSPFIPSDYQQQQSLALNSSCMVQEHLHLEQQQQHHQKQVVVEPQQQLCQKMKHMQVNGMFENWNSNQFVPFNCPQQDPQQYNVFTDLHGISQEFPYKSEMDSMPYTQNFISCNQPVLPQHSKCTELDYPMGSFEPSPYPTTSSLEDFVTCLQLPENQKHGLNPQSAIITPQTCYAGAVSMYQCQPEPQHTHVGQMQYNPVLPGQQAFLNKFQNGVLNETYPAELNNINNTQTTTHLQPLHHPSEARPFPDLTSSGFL
# test_protocol: In vitro assay 1: antagonism in human cell line (transactivation assay, U87 cells prestimulated with kynurenic acid, DRE firefly luciferase reporter)
# Type: cell-based
# Set-up: host or cells: U87 glioblastoma cells, stably transfected with DRE firefly luciferase and renilla reporter constructs
# recorded_conditions: 150 uM kynurenic acid, 20 hours, read-out: Assay 1: AHR-luc Hum Antagonism IC50
reported_endpoint: IC50 (µM)

These recorded examples may help you get a feel for the data.
>  <compound>
C[C@]1(O)CCC[C@H]1NC(=O)c1cc(-c2ccc(OC(F)(F)F)cc2)nn(-c2cccnc2)c1=O (relative stereo) [Example 328]

>  <numeric_result>
0.0306

$$$$
>  <compound>
CC(C)(O)C(NC(=O)c1cc(-c2ccc(OC(F)(F)F)cc2)nn(-c2cccnc2)c1=O)C(F)(F)F (single isomer, unassigned; enantiomer 2) [Example 137]

>  <numeric_result>
0.00423

$$$$
>  <compound>
Cc1ccc(-c2cc(C(=O)N[C@@H](C)CO)c(=O)n(-c3cccnc3)n2)cc1 [Example 152]

>  <numeric_result>
0.0241

$$$$

I: O=C(N[C@@H]1COC[C@@H]1O)c1cc(-c2ccc(Cl)cc2)nn(-c2cncc(F)c2)c1=O (relative stereo) [Example 301]
II: O=C(N[C@@H]1CSC[C@@H]1O)c1cc(-c2ccc(C(F)(F)F)cc2)nn(-c2cccnc2)c1=O (single isomer, unassigned) [Example 291]
// compare: I vs II , metric IC50, want the smaller Please respond with the label that marks your chosen entry.
II
(II: 0.00438 µM, I: 0.031 µM)

###

# measurement_target: AHR (Homo sapiens)
# test_protocol: In vitro assay 1: antagonism in human cell line (transactivation assay, U87 cells prestimulated with kynurenic acid, DRE firefly luciferase reporter)
# Assay type: cell-based
# Parameters: host or cells: U87 glioblastoma cells, stably transfected with DRE firefly luciferase and renilla reporter constructs
# recorded_conditions: 150 uM kynurenic acid, 20 hours, read-out: Assay 1: AHR-luc Hum Antagonism IC50
# Procedure: Transactivation Assay in Human Cell Line (In Vitro Assays 1 and 2) Transactivation assays were carried out in U87 glioblastoma cells (ATCC) endogenously expressing AHR. In addition the cells were stably transfected with an AHR inducible firefly luciferase reporter gene construct that carried AHR-binding sites (DRE) in its promoter and a renilla reporter gene construct with constitutively active promoter. […]
pIC50: −log10 of the molar value.
reported_endpoint: pIC50

These recorded examples may help you get a feel for the data.
>  <compound>
O=C(N[C@H](CO)CF)c1cc(-c2ccc(Cl)cc2)nn(-c2cnsc2)c1=O

>  <pIC50>
9.08

$$$$
>  <compound>
Cn1cc(-n2nc(-c3ccc(Cl)cc3)cc(C(=O)NCC(C)(C)O)c2=O)cn1

>  <pIC50>
7.45

$$$$
>  <compound>
O=C(N[C@@H]1CC[C@@H]1O)c1cc(-c2ccc(C(F)(F)F)cc2)nn(-c2cccnc2)c1=O (relative stereo) [Example 224]

>  <pIC50>
8.36

$$$$
>  <compound>
O=C(N[C@@H]1CCCC[C@@H]1O)c1cc(-c2ccc(Cl)cc2)nn(-c2cccnc2)c1=O (relative stereo)

>  <pIC50>
8.12

$$$$
>  <compound>
O=C(N[C@H]1COC[C@@H]1O)c1cc(-c2ccc(OC(F)(F)F)cc2)nn(-c2cccnc2)c1=O (single isomer, unassigned; enantiomer 1) [Example 161]

>  <pIC50>
6.99

$$$$

P: C[C@@H](CO)NC(=O)c1cc(-c2ccc(OC(F)(F)F)cc2)nn(-c2cccnc2)c1=O
Q: Cn1cc(-n2nc(-c3ccc(C(F)(F)F)cc3)cc(C(=O)N[C@@H]3CCC[C@H]3O)c2=O)cn1
R: O=C(NC[C@@H](O)CO)c1cc(-c2ccc(Cl)cc2)nn(-c2cccnc2)c1=O
rank_up(items): orders items by reported pIC50 in ascending numerical order. Answer format: list of labels, ordered as asked.
R, P, Q
(R: 6.55, P: 7.62, Q: 7.85)

Origin of measurements: patent US12522594B2
